Ref: patent US11136320B2

Would you mind telling me the reported Tmax of each entry?
Assay: PK/PD of NOD-SCID mouse (drug concentration in blood and in tumors)
Assay type: in vivo
Conditions: NOD-SCID, mouse, plasma, po, 50 mg/kg, p.o. (50 mg/kg), Hep3B model
Numeric answer only, unit h assumed.

QUERY: Data request, read-out Tmax, for COCCNc1cc(NC(=O)N2CCCc3cc(CN4CCN(C)CC4=O)c(C=O)nc32)ncc1C#N [Reference compound, roblitinib, reference compound]
RESULT: 1

QUERY: For CSC[C@@H](C)Nc1cc(NC(=O)N2CCCc3cc(CN4CCN(C)CC4=O)c(C=O)nc32)ncc1C#N , what is its reported Tmax?
RESULT: 2
